Taken from PubChem BioAssay AID1937.

- Tested on: Mouse plasma protein binding, RED dialysis, LC/MS/MS
- Assay explanation: fraction bound to mouse plasma proteins – biochemical, rapid equilibrium dialysis, LC/MS/MS, ADME assay, late-stage follow-up (AID 1937)
- Condition label: bound; at 10 µM; stronger effect = higher value

Compound | plasma protein bound [%]
CC1Cc2cc(S(=O)(=O)N3CCN(c4ccc(Cl)cc4)CC3)ccc2N1C(=O)C1CC1 (stereo unspecified) | 99.8
